The measurements presented in this section are drawn from patent EP2729445B1.

Assay: Pharmacokinetics after intravenous and oral treatment, plasma LC-MS/MS
Assay type: in vivo, male Han Wistar rats
Settings: male, Han Wistar, plasma; rat, po, 1 mg/kg
Exercise: for every item that follows, state its recorded Tmax.
Answers are plain numbers, in min.

compound	unit-symbol	Tmax
O=C(O)c1ccc(C2(NC(=O)C3CC(F)(F)CCN3Cc3ccc(C(F)(F)F)cc3)CC2)cc1 (single isomer, unassigned) [Example E18]	min	30

[ask] # Tmax lookup, item O=C(O)c1ccc(C2(NC(=O)[C@H]3CC(F)(F)CCN3Cc3ccc(C(F)(F)F)cc3)CC2)cc1 [Example E17]
[reply] 30
